# Tested on: C2C12
# procedure.text: cytotoxicity across cancer and normal cell panel, profiling panel, mechanism study for HRAS target identification project, CellTiter-Glo ATP luminescence, multiple timepoints (AID 652139)
# stated.conditions: Cancer/normal cell panel viability
Records with an inconclusive call do not appear.
Consider the following molecules; for each one, report its AC50.

Here's what some known entries look like.
COc1ccc(N(C(=O)CCl)C(C(=O)NCCc2ccccc2)c2cccs2)cc1Cl (centres undefined) | 842 nM
COC(=O)c1ccc([C@@H]2c3[nH]c4ccccc4c3C[C@@H](C(=O)OC)N2C(=O)CCl)cc1 | 101 nM
C#CCCCC(=O)NCCOCCOCCOc1ccc(N(C(=O)CCl)C(C(=O)NCCc2ccccc2)c2cccs2)cc1Cl (centres undefined) | 5420 nM

// next item, AC50 requested
# AC50 (molecule: CC(C)(C)OC(=O)NCCOCCOCCOc1ccc(N(C(=O)CCl)C(C(=O)NCCc2ccccc2)c2cccs2)cc1Cl (centres undefined) ) is 442 nM

###

Consider the following compounds; for each one, report its AC50.
# Tested on: LOX-IMVI
# procedure.text: cytotoxicity across cancer and normal cell panel, profiling panel, mechanism study for HRAS target identification project, CellTiter-Glo ATP luminescence, multiple timepoints (AID 652139)
# stated.conditions: Cancer/normal cell panel viability
Inconclusive results are not listed.

Record AC50 per entry; entries follow.
1. CC(C)(C)OC(=O)NCCOCCOCCOc1ccc(N(C(=O)CCl)C(C(=O)NCCc2ccccc2)c2cccs2)cc1Cl (stereo not given)
2. COC(=O)c1ccc([C@@H]2c3[nH]c4ccccc4c3C[C@@H](C(=O)OC)N2C(=O)CCl)cc1
3. COc1ccc(N(C(=O)CCl)C(C(=O)NCCc2ccccc2)c2cccs2)cc1Cl (stereo not given)
4. Cc1onc(C(=O)N2CCN(C(c3ccc(Cl)cc3)c3ccc(Cl)cc3)CC2)c1[N+](=O)[O-]
5. C#CCCCC(=O)NCCOCCOCCOc1ccc(N(C(=O)CCl)C(C(=O)NCCc2ccccc2)c2cccs2)cc1Cl (stereo not given)

1. 83.4 nM
2. 31 nM
3. 40.5 nM
4. 103 nM
5. 421 nM

###

# Test system: HT-29
# procedure.text: cytotoxicity across cancer and normal cell panel, profiling panel, mechanism study for HRAS target identification project, CellTiter-Glo ATP luminescence, multiple timepoints (AID 652139)
# stated.conditions: Cancer/normal cell panel viability
Inconclusive results are not listed. Activity calls are given as the source filed them. How the calls were made is not given here.
Respond using exactly one of the listed classes: class 1 = active, class 0 = inactive

Hi, do you know how Cc1onc(C(=O)N2CCN(C(c3ccc(Cl)cc3)c3ccc(Cl)cc3)CC2)c1[N+](=O)[O-] came out in this test?
class 1

Hi, do you know how COC(=O)c1ccc([C@@H]2c3[nH]c4ccccc4c3C[C@@H](C(=O)OC)N2C(=O)CCl)cc1 came out in this test?
class 1

Hi, do you know how CCC(=O)N(c1ccc(OC)c(Cl)c1)C(C(=O)NCCc1ccccc1)c1cccs1 (stereo unspecified) came out in this test?
class 0

Hi, do you know how CC(C)(C)OC(=O)NCCOCCOCCOc1ccc(N(C(=O)CCl)C(C(=O)NCCc2ccccc2)c2cccs2)cc1Cl (stereo unspecified) came out in this test?
class 1

Hi, do you know how COc1ccc(N(C(=O)CCl)C(C(=O)NCCc2ccccc2)c2cccs2)cc1Cl (stereo unspecified) came out in this test?
class 1

Hi, do you know how C#CCCCC(=O)NCCOCCOCCOc1ccc(N(C(=O)CCl)C(C(=O)NCCc2ccccc2)c2cccs2)cc1Cl (stereo unspecified) came out in this test?
class 1
